The binders listed here are annotated with their x-Fold Improvement Relative to the Parent Clone, KD.
Target: T1, recombinant fibronectin domain ED-B (His)6 (human, UniProt P02751 1266-1356)
T1 construct: domain: ED-B; Produced by standard procedures; immobilised on ELISA plates or on the BIAcore chip; also called recombinant ED-B; human ED-B
Test: SPR (BIAcore); ratio to parent clone MOR02619
Protocol: F1-Chips (Biacore, Sweden) were coated with about 200 RU of ED-B (30 μg/ml, 10 mmol of acetate buffer, pH 4.0) and reference flow cells with a corresponding amount of human serum albumin (20 μg/ml, 10 mmol of acetate buffer, pH 4.5) with use of standard EDC-NHS-amine-coupling chemistry. The antigen density was reduced to about 100 RU for the Fab characterization of the second maturation. […] All sensograms were evaluated with use of BIA evaluation software 3.1.
Numbers only here, please. The scale is fold.

Please review the following examples before continuing.
| binder | readoutNumber |
| --- | --- |
| MOR03071 (Fab, V domains shown, Fab, L-CDR3 derivative of MOR02619) VH: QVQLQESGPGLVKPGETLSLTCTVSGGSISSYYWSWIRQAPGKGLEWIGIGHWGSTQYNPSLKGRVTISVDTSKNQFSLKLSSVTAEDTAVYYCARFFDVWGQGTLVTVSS VL: DIVLTQPPSVSGAPGQRVTISCSGSSSNIGSNTVRWYQQLPGTAPKLLIYSNNKRPSGVPDRFSGSKSGTSASLAITGLQSEDEADYYCLAYIQSKGHVFGGGTKLTVLG | 5.1 |
| MOR03066 (Fab, V domains shown, Fab, L-CDR3 derivative of MOR02619) VH: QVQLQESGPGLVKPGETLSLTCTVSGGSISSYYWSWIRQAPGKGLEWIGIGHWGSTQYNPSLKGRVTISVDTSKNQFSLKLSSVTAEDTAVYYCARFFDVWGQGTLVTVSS VL: DIVLTQPPSVSGAPGQRVTISCSGSSSNIGSNTVRWYQQLPGTAPKLLIYSNNKRPSGVPDRFSGSKSGTSASLAITGLQSEDEADYYCSSYDTQVTRVFGGGTKLTVLG | 3.8 |
| MOR03075 (Fab, V domains shown, Fab, L-CDR3 derivative of MOR02619) VH: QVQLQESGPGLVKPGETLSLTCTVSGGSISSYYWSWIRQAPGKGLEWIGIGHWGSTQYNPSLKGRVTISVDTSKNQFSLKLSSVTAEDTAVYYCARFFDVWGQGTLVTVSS VL: DIVLTQPPSVSGAPGQRVTISCSGSSSNIGSNTVRWYQQLPGTAPKLLIYSNNKRPSGVPDRFSGSKSGTSASLAITGLQSEDEADYYCQSWDPRSFTVFGGGTKLTVLG | 6.8 |
| MOR03069 (Fab, V domains shown, Fab, L-CDR3 derivative of MOR02619) VH: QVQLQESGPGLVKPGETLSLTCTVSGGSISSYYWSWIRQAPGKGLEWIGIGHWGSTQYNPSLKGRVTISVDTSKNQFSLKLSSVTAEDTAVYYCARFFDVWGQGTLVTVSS VL: DIVLTQPPSVSGAPGQRVTISCSGSSSNIGSNTVRWYQQLPGTAPKLLIYSNNKRPSGVPDRFSGSKSGTSASLAITGLQSEDEADYYCWTGMSYHFVFGGGTKLTVLG | 4.8 |

With those in mind, consider the next binder.
Inquiry: Data request, read-out x-Fold Improvement Relative to the Parent Clone, KD, for MOR03055 (Fab, V domains shown, Fab, L-CDR3 derivative of MOR02619) VH: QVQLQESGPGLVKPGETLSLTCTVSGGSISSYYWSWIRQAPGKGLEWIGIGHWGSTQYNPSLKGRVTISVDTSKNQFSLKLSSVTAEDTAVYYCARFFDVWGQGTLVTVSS VL: DIVLTQPPSVSGAPGQRVTISCSGSSSNIGSNTVRWYQQLPGTAPKLLIYSNNKRPSGVPDRFSGSKSGTSASLAITGLQSEDEADYYCQAWTRAHRYPVFGGGTKLTVLG
Reply text: 5.4
